Each recorded value in this set is attributed to patent US20260125451A1.

target: BAFF (PeproTech, Cat: 310-13) (UniProt Q9Y275 134-285); assay: ELISA, BAFF coated, anti-human Fc-HRP
Sequence (Q9Y275 134-285 limits assumed): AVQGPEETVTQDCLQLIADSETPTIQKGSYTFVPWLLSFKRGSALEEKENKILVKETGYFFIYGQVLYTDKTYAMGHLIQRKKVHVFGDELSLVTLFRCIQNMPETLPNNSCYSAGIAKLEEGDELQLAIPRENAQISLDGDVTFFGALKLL
Assignment: determine reported EC50 relative to that of telitacicept for the given binders.
One number for each entry, in ratio.

Problem: Quick check: EC50 relative to that of telitacicept of B575702 (Fc fusion, TACI-BCMA fusion protein; also called BCMA-ECD-TACI-d2-Fc) MLQMAGQCSQNEYFDSLLHACIPCQLRCSSNTPPLTCQRYCNASVTNSVKGTNALSCRKEQGKFYDHLLRDCISCASICGQHPKQCAYFCENKLRSPGDKTHTCPPCPAPEAEGAPSVFLFPPKPKDTLMISRTPEVTCVVVDVSHEDPEVKFNWYVDGVEVHNAKTKPREEQYNSTYRVVSVLTVLHQDWLNGKEYKCKVSNKALPSSIEKTISKAKGQPREPQVYTLPPSRDELTKNQVSLTCLVKGFYPSDIAVEWESNGQPENNYKTTPPVLDSDGSFFLYSKLTVDKSRWQQGNVFSCSVMHEALHNHYTQKSLSLSPGK ?
Solution: 0.25

State recorded EC50 relative to that of telitacicept for all listed binders.
1. B575704 (Fc fusion, TACI-BCMA fusion protein; also called BCMA-ECD-TACI-T2-Fc) MLQMAGQCSQNEYFDSLLHACIPCQLRCSSNTPPLTCQRYCNASVTNSVKGTNASRVDQEERFPQGLWTGVAMRSCPEEQYWDPLLGTCMSCKTICNHQSQRTCAAFCRSLSCRKEQGKFYDHLLRDCISCASICGQHPKQCAYFCENKLRSPVNLPPELDKTHTCPPCPAPEAEGAPSVFLFPPKPKDTLMISRTPEVTCVVVDVSHEDPEVKFNWYVDGVEVHNAKTKPREEQYNSTYRVVSVLTVLHQDWLNGKEYKCKVSNKALPSSIEKTISKAKGQPREPQVYTLPPSRDELTKNQVSLTCLVKGFYPSDIAVEWESNGQPENNYKTTPPVLDSDGSFFLYSKLTVDKSRWQQGNVFSCSVMHEALHNHYTQKSLSLSPGK
2. B575703 (Fc fusion, TACI-BCMA fusion protein; also called TACI-T2-BCMA-ECD-Fc) SRVDQEERFPQGLWTGVAMRSCPEEQYWDPLLGTCMSCKTICNHQSQRTCAAFCRSLSCRKEQGKFYDHLLRDCISCASICGQHPKQCAYFCENKLRSPVNLPPELMLQMAGQCSQNEYFDSLLHACIPCQLRCSSNTPPLTCQRYCNASVTNSVKGTNADKTHTCPPCPAPEAEGAPSVFLFPPKPKDTLMISRTPEVTCVVVDVSHEDPEVKFNWYVDGVEVHNAKTKPREEQYNSTYRVVSVLTVLHQDWLNGKEYKCKVSNKALPSSIEKTISKAKGQPREPQVYTLPPSRDELTKNQVSLTCLVKGFYPSDIAVEWESNGQPENNYKTTPPVLDSDGSFFLYSKLTVDKSRWQQGNVFSCSVMHEALHNHYTQKSLSLSPGK

Solution:
1. 0.25
2. 0.5
